Test system: Escherichia coli
test details: Antibacterial activity against Escherichia coli ATCC 25922 assessed as inhibition of visible growth after 24 hrs by broth microdilution method
Type: functional
property measured: log10(MIC) (log10 of the value in µg/mL)

>  <structure string>
CCCCCCCCCCCCNC(=O)CN(C(=O)CN)N(C)C(=O)C(C)(C)C

>  <log10(MIC)>
1.81

$$$$
>  <structure string>
CCCCCCCCNC(=O)CN(NC(=O)CCCCCCC)C(=O)CN.Cl

>  <log10(MIC)>
1.20

$$$$
>  <structure string>
CCCCCCCCNC(=O)CN(NC(=O)C(C)(C)C)C(=O)CN.Cl

>  <log10(MIC)>
2.41

$$$$
>  <structure string>
CCCCCCCCCCCCNC(=O)CN(NC(=O)OCc1ccccc1)C(=O)CN.Cl

>  <log10(MIC)>
1.51

$$$$
>  <structure string>
CCCCCCCCNC(=O)CN(NC(=O)OCc1ccccc1)C(=O)CN.Cl

>  <log10(MIC)>
1.81

$$$$
>  <structure string>
CCCCCCCCCCCC(=O)NN(CC(=O)NCCC)C(=O)CN.Cl

>  <log10(MIC)>
1.81

$$$$
>  <structure string>
CCCCCCCCNC(=O)CN(C(=O)CN)N(C)C(=O)OCc1ccccc1

>  <log10(MIC)>
2.11

$$$$

Values were extracted from ChEMBL document CHEMBL4680184.
